# Species: Rattus norvegicus
# ASSAY_NOTES: DrugMatrix - Regimen: Daily Repeat
# Assay type: toxicity, organism-based, Sprague-Dawley
# Parameters: regimen Daily Repeat, gender Male, age 6-8 weeks
# ASSAY_SETUP: in vivo, sc, 0 mg/kg, 120 h, tissue Plasma, route subcutaneous, dose level Control, time 5 day, […]
Examples of molecules with documented CARBON DIOXIDE follow.

// below: answered molecules
| MOLECULE | CARBON DIOXIDE |
| --- | --- |
| CCC(=O)O[C@]1(C(=O)CCl)[C@@H](C)C[C@H]2[C@@H]3CCC4=CC(=O)C=C[C@]4(C)[C@@]3(F)[C@@H](O)C[C@@]21C [CLOBETASOL PROPIONATE] | 25 mmol/L |
| CC(C)(C)CC(C)(C)c1ccc(OCCOCC[N+](C)(C)Cc2ccccc2)cc1.[Cl-] [BENZETHONIUM CHLORIDE] | 30.5 mmol/L |
| O=C(Nc1ccc(Br)cc1)c1cc(Br)cc(Br)c1O | 25 mmol/L |
| Oc1c(Cl)cc(Cl)c(Cl)c1Cc1c(O)c(Cl)cc(Cl)c1Cl | 30.5 mmol/L |

Consider CCN(CC)CCOCCC1=CCC2CC1C2(C)C (stereo not given) . Its measured CARBON DIOXIDE is 34.83 mmol/L

----------
# Species on record: Rattus norvegicus
# ASSAY_NOTES: DrugMatrix - Regimen: Daily Repeat
# Format: toxicity, organism-based, Sprague-Dawley
# Set-up: regimen Daily Repeat, gender Male, age 6-8 weeks
# ASSAY_SETUP: in vivo, po, 2000 mg/kg, 72 h, tissue Plasma, route oral GAVAGE, dose level High, time 3 day, vehicle .5 % CMC
Attribute: URIC ACID
Your answer should be a plain number; it is taken to be in mg/dL.

| COMPOUND | OBSERVABLE | MEASURE_UNIT | QUANTITATIVE_READOUT |
| --- | --- | --- | --- |
| O=C1Nc2ccc(Cl)cc2C(c2ccccc2Cl)=NC1O (centres undefined) | URIC ACID | mg/dL | 1.5 |
| COc1cc2nc(N3CCN(C(=O)c4ccco4)CC3)nc(N)c2cc1OC | URIC ACID | mg/dL | 1.17 |
| CC1(C)S[C@@H]2[C@H](NC(=O)[C@H](N)c3ccccc3)C(=O)N2[C@H]1C(=O)O | URIC ACID | mg/dL | 1.43 |

Consider `CN/C(=N/CCSCc1nc[nH]c1C)NC#N` . Its measured URIC ACID is 1.5

----------
Listed compounds paired with reported ASPARTATE AMINOTRANSFERASE
# Species on record: Rattus norvegicus
# ASSAY_NOTES: DrugMatrix - Regimen: Daily Repeat
# Format: toxicity, organism-based, Sprague-Dawley
# Parameters: regimen Daily Repeat, gender Male, age 6-8 weeks
# ASSAY_SETUP: in vivo, po, 2000 mg/kg, 120 h, tissue Plasma, route oral GAVAGE, dose level High, time 5 day, vehicle .5 % CMC
Give the value, in units of u/L, as a plain number.

Example entries and their recorded answers appear below.
| COMPOUND | ASPARTATE AMINOTRANSFERASE (u/L) |
| --- | --- |
| COc1cc2nc(N3CCN(C(=O)c4ccco4)CC3)nc(N)c2cc1OC | 139.33 |
| CN(C/C=C/C#CC(C)(C)C)Cc1cccc2ccccc12 | 56 |
| O=C1Nc2ccc(Cl)cc2C(c2ccccc2Cl)=NC1O (stereo unspecified) | 92 |
| CN/C(=N/CCSCc1nc[nH]c1C)NC#N | 88.33 |
| CC1(C)S[C@@H]2[C@H](NC(=O)[C@H](N)c3ccccc3)C(=O)N2[C@H]1C(=O)O | 99 |

Now for another entry.
The compound listed as NC1CCN(c2nc3c(cc2F)c(=O)c(C(=O)O)cn3-c2ccc(F)cc2F)C1 (stereo unspecified) has a reported ASPARTATE AMINOTRANSFERASE of 64.67
